Test system: RAW264.7
Test: Antiinflammatory activity against mouse RAW264.7 cells assessed as inhibition of TNFalpha-stimulated NF-kappaB activation by luciferase assay
Assay type: functional, cell-based
MEASUREMENT KIND: IC50 (nM)
Write the value in nM as a bare number.

Identify measured IC50 corresponding to CC(C)C[C@H](NC(=O)[C@H](Cc1ccccc1)NC(=O)c1cnccn1)B(O)O [BORTEZOMIB]
30

Identify measured IC50 corresponding to c1coc(-c2nc(-c3ccc4[nH]ccc4c3)no2)c1
1350

Identify measured IC50 corresponding to c1ccc(-c2nc(-c3cccc4[nH]ccc34)no2)cc1
13800

---

Please go through the items and note down their pIC50.
Test system: RAW264.7
Test: Antiinflammatory activity against mouse RAW264.7 cells assessed as inhibition of LPS-stimulated NO production
Format: functional, cell-based
The scale used: pIC50 is minus the common logarithm of the concentration in molar units.

Identify measured pIC50 corresponding to c1ccc(-c2nc(-c3cccc4[nH]ccc34)no2)cc1
4.57

Identify measured pIC50 corresponding to C[C@@H]1C[C@H]2[C@@H]3CCC4=CC(=O)C=C[C@]4(C)[C@@]3(F)[C@@H](O)C[C@]2(C)[C@@]1(O)C(=O)CO
5.38

Identify measured pIC50 corresponding to c1coc(-c2nc(-c3ccc4[nH]ccc4c3)no2)c1
4.89

Where do these numbers come from? They come from ChEMBL document CHEMBL4665728.
